B1: tRNA (parent)
chain: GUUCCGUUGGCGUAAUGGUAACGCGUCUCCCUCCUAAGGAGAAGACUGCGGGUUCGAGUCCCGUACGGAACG

variants of: B1; experiment: yeast fitness relative to wild type (ratio to wild type); higher = fitter; tRNA-Arg(CCU), competitive growth, 37 C, YPD
Fewer inactive variants are shown than the library holds.
The label depends only on yeast fitness: 1.0 if it is at least 0.7, 0.0 if it is smaller.

In: In plain terms: is recorded yeast fitness at least 0.7 for G6A A36U C66U ?
Out: 0.0
